Entries and their MIC
System: Acinetobacter baumannii
Assay Comment: Antibacterial activity against Acinetobacter baumannii assessed as inhibition of bacterial growth incubated for 24 hrs by broth microdilution method
Type: functional
Measurement Setup: read-out: MIC100
Positions of bridges follow the written chain, without caps; N, C: chain ends. Non-standard residues stand in square brackets, D forms with d. Residues, ends and D or L forms follow the SMILES beside them. *: point of attachment. Octanoyl = CCCCCCCC(=O)*; Dab = NCC[C@H](N)C(=O)O

I have this compound here, CC(C)CCCCC(=O)N[C@@H](CCN)C(=O)N[C@H](C(=O)N[C@@H](CCN)C(=O)N[C@H]1CCNC(=O)[C@H]([C@@H](C)O)NC(=O)[C@H](CCN)NC(=O)[C@H](CCN)NC(=O)[C@H](CC(C)C)NC(=O)[C@@H](Cc2ccccc2)NC(=O)[C@H](CCN)NC1=O)[C@@H](C)OC(=O)[C@@H](N)CC(C)C , and I need its recorded MIC.
0.06 µg/mL

Any idea what MIC was measured for CCCCCCCC(=O)N[C@@H](CCN)C(=O)N[C@H](C(=O)N[C@@H](CCN)C(=O)N[C@H]1CCNC(=O)[C@H]([C@@H](C)O)NC(=O)[C@H](CCN)NC(=O)[C@H](CCN)NC(=O)[C@H](CC(C)C)NC(=O)[C@@H](Cc2ccccc2)NC(=O)[C@H](CCN)NC1=O)[C@@H](C)O (Octanoyl-[Dab]T[Dab][Dab][Dab][dF]L[Dab][Dab]T; lactam 4-C) ?
0.03 µg/mL

---

Recorded MIC, one value per entry.
Test system: Acinetobacter baumannii
Assay Comment: Antibacterial activity against Acinetobacter baumannii assessed as inhibition of bacterial growth incubated for 24 hrs by broth microdilution method
Format: functional
Measurement Setup: read-out: MIC100
Please reply with the bare figure in µg/mL and do not write the unit itself.

# Smiles Data, Assayed Target, Val
records = [
    ("CC(C)CCCCC(=O)N[C@@H](CCN)C(=O)N[C@@H](CC(C)C)C(=O)N[C@@H](CCN)C(=O)N[C@H]1CCNC(=O)[C@H]([C@@H](C)O)NC(=O)[C@H](CCN)NC(=O)[C@H](CCN)NC(=O)[C@H](CC(C)C)NC(=O)[C@@H](Cc2ccccc2)NC(=O)[C@H](CCN)NC1=O", "Acinetobacter baumannii", 2),
]

Continue with the compound presented below.
Quick one: MIC for CC(C)CCCCC(=O)N[C@@H](CCN)C(=O)N[C@H](C(=O)N[C@@H](CCN)C(=O)N[C@H]1CCNC(=O)[C@H]([C@@H](C)O)NC(=O)[C@H](CCN)NC(=O)[C@H](CCN)NC(=O)[C@H](CC(C)C)NC(=O)[C@@H](Cc2ccccc2)NC(=O)[C@H](CCN)NC1=O)[C@@H](C)OC(=O)[C@@H](N)CS ?
0.125

---

Catalogue of MIC values
Test system: Acinetobacter baumannii
Assay Comment: Antibacterial activity against Acinetobacter baumannii assessed as inhibition of bacterial growth incubated for 24 hrs by broth microdilution method
Assay type: functional
Measurement Setup: read-out: MIC100
// note: answer is a bare numeric in µg/mL

# Smiles Data, Value Units, MIC
records = [
    ("CC(C)CCCCC(=O)N[C@@H](CCN)C(=O)N[C@H](C(=O)N[C@@H](CCN)C(=O)N[C@H]1CCNC(=O)[C@H]([C@@H](C)O)NC(=O)[C@H](CCN)NC(=O)[C@H](CCN)NC(=O)[C@H](CC(C)C)NC(=O)[C@@H](Cc2ccccc2)NC(=O)[C@H](CCN)NC1=O)[C@@H](C)OC(=O)[C@@H](N)Cc1c[nH]cn1", "µg/mL", 0.125),
]

# query: MIC | item CC(C)CCCCC(=O)N[C@@H](CCN)C(=O)N[C@H](C(=O)N[C@@H](CCN)C(=O)N[C@H]1CCNC(=O)[C@H]([C@@H](C)O)NC(=O)[C@H](CCN)NC(=O)[C@H](CCN)NC(=O)[C@H](CC(C)C)NC(=O)[C@@H](Cc2ccccc2)NC(=O)[C@H](CCN)NC1=O)[C@@H](C)OC(=O)[C@@H](N)Cc1c[nH]c2ccccc12 | system: Acinetobacter baumannii
0.06

Where these numbers come from: ChEMBL document CHEMBL4825673
